- Test Target: T1, Anti-PSMA Fab (SEQ ID NOs: 19, 20)
- T1 construct: Biotinylated PSMA Fab captured on neutravidin coated plates in the phage ELISA; also called 006 PSMA Fab
- Measurement Description: phage binding ELISA on captured PSMA Fab pre-incubated with PSMA antigen as competitor, anti-M13 HRP detection
Parameter: Anti-PSMA Fab signal in the presence of PSMA
// keep it numeric: no unit symbol after the value

Known results for binders:
MMKWCIPTWMCEME [Phage-1912]    0.132
WDNWCIPPWMCIGF [Phage-1908]    0.186
SAHMCIPPWMCLHT [Phage-1907]    0.133

Q) For IEKMCKPAWMCWAD [Phage-1917] , what is its reported Anti-PSMA Fab signal in the presence of PSMA?
A) 0.0706

Q) Given the entry MMKWCTPAWMCEEA [Phage-1909] , report its measured Anti-PSMA Fab signal in the presence of PSMA.
A) 0.0691

Reference source: patent US20260242478A1
